Values from ChEMBL document CHEMBL1143427

Please provide measured Activity for the entries that follow.
Molecular target: Beta-lactamase (Serratia marcescens)
Assay: Ratio of Kcat to Km of Serratia marcescens AmpC assessed as drug hydrolysis by spectrophotometry relative to cephaloridine
Parameters: scale not given: the % may be the effect or the level left
# unit: % | format: bare number

Form field Activity, entry O=C(Cc1cccs1)N[C@@H]1C(=O)N2C(C(=O)O)=C(/C=C/c3ccc([N+](=O)[O-])cc3[N+](=O)[O-])CS[C@H]12 : 19

Form field Activity, entry CC1(C)S[C@@H]2[C@H](NC(=O)Cc3ccccc3)C(=O)N2[C@H]1C(=O)O : 290

----------
Please provide measured Activity for the entries that follow.
Molecular target: Beta-lactamase (Pseudomonas aeruginosa (strain ATCC 15692 / PAO1 / 1C / PRS 101 / LMG12228)) (UniProt P24735)
Sequence (P24735 27-397 limits assumed): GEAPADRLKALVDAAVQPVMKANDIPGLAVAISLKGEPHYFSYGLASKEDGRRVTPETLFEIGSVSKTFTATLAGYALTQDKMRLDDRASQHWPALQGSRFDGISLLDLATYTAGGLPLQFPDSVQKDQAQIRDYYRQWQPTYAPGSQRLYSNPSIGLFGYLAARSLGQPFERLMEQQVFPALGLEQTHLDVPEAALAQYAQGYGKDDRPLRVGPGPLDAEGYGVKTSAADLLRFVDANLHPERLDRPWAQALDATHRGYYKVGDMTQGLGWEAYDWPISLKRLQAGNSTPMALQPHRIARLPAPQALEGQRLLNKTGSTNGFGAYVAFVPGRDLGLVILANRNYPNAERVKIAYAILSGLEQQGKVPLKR
Assay: Activity of Pseudomonas aeruginosa AmpC assessed as drug hydrolysis by spectrophotometry relative to cephaloridine
Set-up: scale not given: the % may be the effect or the level left

Form field Activity, entry CC1(C)S[C@@H]2[C@H](NC(=O)Cc3ccccc3)C(=O)N2[C@H]1C(=O)O : 540%

Form field Activity, entry CO/N=C(\C(=O)N[C@@H]1C(=O)N2C(C(=O)[O-])=C(C[N+]3(C)CCCC3)CS[C@H]12)c1csc(N)n1 : 19%

Form field Activity, entry Nc1nc(/C(=N/O)C(=O)N[C@@H]2C(=O)N3C(C(=O)O)=C(/C=C4\CCN([C@@H]5CCNC5)C4=O)CS[C@H]23)ns1 : 1400%

Form field Activity, entry CC(C)(O/N=C(\C(=O)N[C@@H]1C(=O)N2C(C(=O)[O-])=C(C[n+]3ccccc3)CS[C@H]12)c1csc(N)n1)C(=O)O : < 0.059%

----------
Molecular target: Beta-lactamase (Pseudomonas aeruginosa (strain ATCC 15692 / PAO1 / 1C / PRS 101 / LMG12228)) (UniProt P24735)
Assay: Ratio of Kcat to Km of Pseudomonas aeruginosa MK-1184 AmpC assessed as drug hydrolysis by spectrophotometry relative to cephaloridine
Design: scale not given: the % may be the effect or the level left
endpoint: Activity (%)
# unit: % | format: bare number

Form field Activity, entry Nc1nc(/C(=N/O)C(=O)N[C@@H]2C(=O)N3C(C(=O)O)=C(/C=C4\CCN([C@@H]5CCNC5)C4=O)CS[C@H]23)ns1 : 1

Form field Activity, entry CC1(C)S[C@@H]2[C@H](NC(=O)Cc3ccccc3)C(=O)N2[C@H]1C(=O)O : 670

Form field Activity, entry CO/N=C(\C(=O)N[C@@H]1C(=O)N2C(C(=O)[O-])=C(C[N+]3(C)CCCC3)CS[C@H]12)c1csc(N)n1 : 0.78

Form field Activity, entry CC(C)(O/N=C(\C(=O)N[C@@H]1C(=O)N2C(C(=O)[O-])=C(C[n+]3ccccc3)CS[C@H]12)c1csc(N)n1)C(=O)O : 5.3

----------
Molecular target: Beta-lactamase (Klebsiella oxytoca)
Experiment: Activity of Klebsiella oxytoca beta-lactamase K1 assessed as drug hydrolysis by spectrophotometry relative to cephaloridine
Parameters: scale not given: the % may be the effect or the level left
Please provide measured Activity for the entries that follow.
# unit: % | format: bare number

Form field Activity, entry CO/N=C(\C(=O)N[C@@H]1C(=O)N2C(C(=O)O)=C(COC(C)=O)CS[C@H]12)c1csc(N)n1 : 13

Form field Activity, entry CC1(C)S[C@@H]2[C@H](NC(=O)Cc3ccccc3)C(=O)N2[C@H]1C(=O)O : 160

Form field Activity, entry Nc1nc(/C(=N/O)C(=O)N[C@@H]2C(=O)N3C(C(=O)O)=C(/C=C4\CCN([C@@H]5CCNC5)C4=O)CS[C@H]23)ns1 : 33

Form field Activity, entry CO/N=C(\C(=O)N[C@@H]1C(=O)N2C(C(=O)[O-])=C(C[N+]3(C)CCCC3)CS[C@H]12)c1csc(N)n1 : 8.5

Form field Activity, entry CC(C)(O/N=C(\C(=O)N[C@@H]1C(=O)N2C(C(=O)[O-])=C(C[n+]3ccccc3)CS[C@H]12)c1csc(N)n1)C(=O)O : 0.0026

----------
Biological target: Beta-lactamase TEM (Escherichia coli)
Experiment: Activity of Escherichia coli TEM1 assessed as drug hydrolysis by spectrophotometry relative to cephaloridine
Set-up: scale not given: the % may be the effect or the level left
endpoint: Activity (%)
# unit: % | format: bare number

Record CC1(C)S[C@@H]2[C@H](NC(=O)Cc3ccccc3)C(=O)N2[C@H]1C(=O)O / Beta-lactamase TEM (Escherichia coli), Activity recorded as 122

Record Nc1nc(/C(=N/O)C(=O)N[C@@H]2C(=O)N3C(C(=O)O)=C(/C=C4\CCN([C@@H]5CCNC5)C4=O)CS[C@H]23)ns1 / Beta-lactamase TEM (Escherichia coli), Activity recorded as 0.9

Record CO/N=C(\C(=O)N[C@@H]1C(=O)N2C(C(=O)[O-])=C(C[N+]3(C)CCCC3)CS[C@H]12)c1csc(N)n1 / Beta-lactamase TEM (Escherichia coli), Activity recorded as 0.45

Record CC(C)(O/N=C(\C(=O)N[C@@H]1C(=O)N2C(C(=O)[O-])=C(C[n+]3ccccc3)CS[C@H]12)c1csc(N)n1)C(=O)O / Beta-lactamase TEM (Escherichia coli), Activity recorded as 0.00023

----------
Target: Beta-lactamase (Pseudomonas aeruginosa (strain ATCC 15692 / PAO1 / 1C / PRS 101 / LMG12228)) (UniProt P24735)
Test: Activity of Pseudomonas aeruginosa MK-1184 AmpC assessed as drug hydrolysis by spectrophotometry relative to cephaloridine
Set-up: scale not given: the % may be the effect or the level left
Please provide measured Activity for the entries that follow.
# unit: % | format: bare number

Form field Activity, entry CC1(C)S[C@@H]2[C@H](NC(=O)Cc3ccccc3)C(=O)N2[C@H]1C(=O)O : 91

Form field Activity, entry CC(C)(O/N=C(\C(=O)N[C@@H]1C(=O)N2C(C(=O)[O-])=C(C[n+]3ccccc3)CS[C@H]12)c1csc(N)n1)C(=O)O : 3.1

Form field Activity, entry Nc1nc(/C(=N/O)C(=O)N[C@@H]2C(=O)N3C(C(=O)O)=C(/C=C4\CCN([C@@H]5CCNC5)C4=O)CS[C@H]23)ns1 : 2

Form field Activity, entry CO/N=C(\C(=O)N[C@@H]1C(=O)N2C(C(=O)[O-])=C(C[N+]3(C)CCCC3)CS[C@H]12)c1csc(N)n1 : 1.5

----------
Molecular target: Beta-lactamase (Serratia marcescens)
Test: Activity of Serratia marcescens AmpC assessed as drug hydrolysis by spectrophotometry relative to cephaloridine
Set-up: scale not given: the % may be the effect or the level left
endpoint: Activity

Form field Activity, entry Nc1nc(/C(=N/O)C(=O)N[C@@H]2C(=O)N3C(C(=O)O)=C(/C=C4\CCN([C@@H]5CCNC5)C4=O)CS[C@H]23)ns1 : < 0.14%

Form field Activity, entry CC(C)(O/N=C(\C(=O)N[C@@H]1C(=O)N2C(C(=O)[O-])=C(C[n+]3ccccc3)CS[C@H]12)c1csc(N)n1)C(=O)O : < 0.0025%

Form field Activity, entry CO/N=C(\C(=O)N[C@@H]1C(=O)N2C(C(=O)[O-])=C(C[N+]3(C)CCCC3)CS[C@H]12)c1csc(N)n1 : < 0.028%

----------
Biological target: Beta-lactamase (Morganella morganii)
Assay: Ratio of Kcat to Km of Morganella morganii AmpC assessed as drug hydrolysis by spectrophotometry relative to cephaloridine
Parameters: scale not given: the % may be the effect or the level left
Please provide measured Activity for the entries that follow.

Form field Activity, entry CC(C)(O/N=C(\C(=O)N[C@@H]1C(=O)N2C(C(=O)[O-])=C(C[n+]3ccccc3)CS[C@H]12)c1csc(N)n1)C(=O)O : < 2.5%

Form field Activity, entry CO/N=C(\C(=O)N[C@@H]1C(=O)N2C(C(=O)[O-])=C(C[N+]3(C)CCCC3)CS[C@H]12)c1csc(N)n1 : < 0.018%

Form field Activity, entry Nc1nc(/C(=N/O)C(=O)N[C@@H]2C(=O)N3C(C(=O)O)=C(/C=C4\CCN([C@@H]5CCNC5)C4=O)CS[C@H]23)ns1 : < 0.071%

----------
Please provide measured kcat/Km for the entries that follow.
Tested on: Klebsiella pneumoniae
Assay: Ratio of Kcat to Km of Klebsiella pneumoniae TEM26 assessed as drug hydrolysis by spectrophotometry
# unit: M⁻¹ s⁻¹ | format: bare number

Form field kcat/Km, entry CO/N=C(\C(=O)N[C@@H]1C(=O)N2C(C(=O)O)=C(COC(C)=O)CS[C@H]12)c1csc(N)n1 : 190000

Form field kcat/Km, entry Nc1nc(/C(=N/O)C(=O)N[C@@H]2C(=O)N3C(C(=O)O)=C(/C=C4\CCN([C@@H]5CCNC5)C4=O)CS[C@H]23)ns1 : 110000

Form field kcat/Km, entry CC1(C)S[C@@H]2[C@H](NC(=O)Cc3ccccc3)C(=O)N2[C@H]1C(=O)O : 1.5e+07
